Hey, just so you know, these numbers are from patent US20140087995A1.

Molecular target: T1, rat calcitonin receptor (rat, UniProt P32214 25-516)
T1 construct: whole, on cells; Membranes of BHK tk'ts 13 cells transiently transfected with the rat calcitonin receptor; also called rCTR; rat calcitonin (a) receptor
T1 sequence (looked up): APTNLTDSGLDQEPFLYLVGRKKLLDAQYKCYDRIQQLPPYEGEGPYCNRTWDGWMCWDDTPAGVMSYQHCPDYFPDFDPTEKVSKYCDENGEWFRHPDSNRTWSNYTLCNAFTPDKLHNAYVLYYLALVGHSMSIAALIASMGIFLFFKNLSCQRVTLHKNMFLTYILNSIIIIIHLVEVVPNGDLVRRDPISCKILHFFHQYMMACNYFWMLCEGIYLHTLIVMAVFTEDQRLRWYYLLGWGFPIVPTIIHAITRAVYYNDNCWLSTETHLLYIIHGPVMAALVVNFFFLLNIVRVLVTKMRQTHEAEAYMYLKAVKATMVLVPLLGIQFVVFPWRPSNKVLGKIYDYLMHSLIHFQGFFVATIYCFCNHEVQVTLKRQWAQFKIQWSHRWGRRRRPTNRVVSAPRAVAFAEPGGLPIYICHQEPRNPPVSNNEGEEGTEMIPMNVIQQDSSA
Experiment: SPA competition vs 125I-calcitonin, membranes with rat CTR (Assay VIII)
Numbered stars: 1 amine (or outer) side, 2 acyl side, 3 side chain; on linkers, the order of the positions; unused ones are H or OH. Bridge positions count the residues as written; N and C are the ends. * marks the point of attachment. C20 diacid = O=C(O)CCCCCCCCCCCCCCCCCCC(=O)*; γGlu = O=C(O)[C@H](CCC(=O)[*:2])N[*:1]
We begin with a simple list: items and their reported pIC50.
pIC50 (log units): -log10 of the concentration in mol/L.

Sample records with pIC50:
Asked: Param item = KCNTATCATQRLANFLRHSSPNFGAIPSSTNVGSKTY (C20 diacid-gGlu on the alpha amino group of the N-terminal residue (Lys 1); disulfide bridge Cys2-Cys7; C-terminal amide, modifications are with respect to human amylin; also called compound 34) [N^α1-[(4S)-4-carboxy-4-(19-carboxynonadecanoylamino)butanoyl]-[Arg17,Pro21,Pro27,Lys35]-h-amylin] ; retrieve measured pIC50.
Given back: 7.05

Asked: Request: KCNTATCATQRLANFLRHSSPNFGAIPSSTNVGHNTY (C20 diacid-gGlu on the alpha amino group of the N-terminal residue (Lys 1); disulfide bridge Cys2-Cys7; C-terminal amide, modifications are with respect to human amylin; also called compound 40) [N^α1-[(4S)-4-carboxy-4-(19-carboxynonadecanoylamino)butanoyl]-[Arg17,Pro21,Pro27,His34]-h-amylin]
Given back: 7.16

Asked: Request: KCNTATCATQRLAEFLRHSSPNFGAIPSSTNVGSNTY (C20 diacid-gGlu-2xOEG on the alpha amino group of the N-terminal residue (Lys 1); disulfide bridge Cys2-Cys7; C-terminal amide, modifications are with respect to human amylin; also called compound 19)
Given back: 7.02

Asked: Request: {C20 diacid-γGlu}-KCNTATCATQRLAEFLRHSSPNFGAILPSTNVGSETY-NH2 (disulfide 2-7, modifications are with respect to human amylin; also called compound 33)
Given back: 7.54

Asked: Request: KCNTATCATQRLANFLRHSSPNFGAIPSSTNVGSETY (C20 diacid-gGlu on the alpha amino group of the N-terminal residue (Lys 1); disulfide bridge Cys2-Cys7; C-terminal amide, modifications are with respect to human amylin; also called compound 23) [N^α1-[(4S)-4-carboxy-4-(19-carboxynonadecanoylamino)butanoyl]-[Arg17,Pro21,Pro27,Glu35]-h-amylin]
Given back: 7.10

Asked: Request: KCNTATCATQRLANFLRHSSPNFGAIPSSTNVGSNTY (C20 diacid-gGlu-2xOEG on the alpha amino group of the N-terminal residue (Lys 1); disulfide bridge Cys2-Cys7; C-terminal amide, modifications are with respect to human amylin; also called compound 24)
Given back: 6.46

Let us move to another entry and its pIC50.
Asked: Param item = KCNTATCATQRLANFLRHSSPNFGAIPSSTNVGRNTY (C20 diacid-gGlu on the alpha amino group of the N-terminal residue (Lys 1); disulfide bridge Cys2-Cys7; C-terminal amide, modifications are with respect to human amylin; also called compound 39) [N^α1-[(4S)-4-carboxy-4-(19-carboxynonadecanoylamino)butanoyl]-[Arg17,Pro21,Pro27,Arg34]-h-amylin] ; retrieve measured pIC50.
Given back: 7.02
